# Test system: DU-145 prostate cancer cells
# assay-overview: CellTiter-Glo luminescent cell viability assay, DU-145
# Format: cell-based
# condition-notes: Homo sapiens; DU-145 cells, 72 hours, CellTiter-Glo
readout-type: pIC50
One number for each entry, as −log10 of the molar value.

The compound `C#C[C@]1(O)CC[C@H]2[C@@H]3CCC4=CC(=O)CC[C@@H]4[C@H]3C(=C)C[C@@]21CC` , tested on DU-145 prostate cancer cells, showed pIC50 of 4.80
